- Species: Mus musculus
- experimental protocol: Selectivity ratio of EC50 for mouse MC3R to EC50 for mouse MC5R
Square brackets hold non-standard residues; d marks the D form. Peptide text beside a SMILES is read from it. Dap = NC[C@H](N)C(=O)O
Recorded Ratio EC50, one value per entry.
measure name: Ratio EC50

compound: N=C(N)NCCC[C@@H]1NC(=O)[C@@H](Cc2ccccc2)NC(=O)[C@H](Cc2cnc[nH]2)NC(=O)[C@@H]2CCCN2C(=O)[C@H]2CCCN2C(=O)[C@H](CN)NC(=O)[C@H](Cc2c[nH]c3ccccc23)NC1=O (cyclo(H[dF]RW[Dap][dP]P))
measure name: Ratio EC50
result: > 100

compound: C[C@@H]1NC(=O)[C@H](CC(N)=O)NC(=O)[C@H](Cc2c[nH]c3ccccc23)NC(=O)[C@H](CCCNC(=N)N)NC(=O)[C@@H](Cc2ccccc2)NC(=O)[C@@H]2CCCN2C(=O)[C@H]2CCCN2C1=O (cyclo(P[dF]RWNA[dP]))
measure name: Ratio EC50
result: > 1000
